Entries and their GI50
- Test system: SK-MEL-28
- procedure_details: NCI tumour cell line growth inhibition, 48 h
Active and inactive are the calls of the source. No stated cut-off is given here; in the data, active = GI50 up to about 1.1 µM and inactive = higher.

**Q:** So what does the record say about GI50 for C=[N+](CNC(=O)CNC(=O)C(Cc1ccc([N+](=O)[O-])cc1)NC(=O)OC(C)(C)C)C(=O)CNC(=O)C(Cc1ccc([N+](=O)[O-])cc1)NC(=O)OC(C)(C)C (centres undefined) ?
**A:** 30.1 µM (inactive)

**Q:** Another compound to check: `CC(=O)Nc1ccc(C(=O)N2N=C(C)/C(=C/c3cccc([N+](=O)[O-])c3)C2=O)cc1`
**A:** > 100 µM (inactive)

**Q:** Another compound to check: `Cc1ccc2nc(/C=N/c3ccccc3Cl)cc(C)c2c1`
**A:** 18.9 µM (inactive)

Others:
**Q:** So what does the record say about GI50 for `COc1ccc(/C=N/N2C(=O)c3c(N)c(C#N)c(-c4ccccc4)c(-c4ccccc4)c3C2=O)cc1` ?
**A:** > 100 µM (inactive)

* * *

- System: SW-620
- procedure_details: NCI tumour cell line growth inhibition, 48 h
Activity calls are given as the source filed them. Rule as the data show it: active = GI50 up to about 1.1 µM and inactive = higher.
Entries and their GI50

**Q:** So what does the record say about GI50 for `O=C(Cc1ccccc1)NNc1nc(NNC(=O)c2ccncc2)nc(Nc2cccc(Cl)c2)n1` ?
**A:** > 10 µM (inactive)

**Q:** Another compound to check: CS(=O)(=O)N1CC(CCl)c2ccc([N+](=O)[O-])cc21 (stereo not given)
**A:** > 100 µM (inactive)

**Q:** Another compound to check: COC1CC2C3/C(=N/Nc4ccc([N+](=O)[O-])cc4[N+](=O)[O-])CCC2(C)C3C1 (stereo not given)
**A:** > 10 µM (inactive)

**Q:** Another compound to check: O=C(Nc1cccc(Cl)c1)C(=O)C(C(=O)c1ccc2ccccc2c1)C1OC(=O)c2ccccc21 (stereo not given)
**A:** 18.9 µM (inactive)

**Q:** Another compound to check: CC(=O)C(CN1CCOCC1)C(c1ccccc1)c1c(O)c2ccccc2oc1=O (stereo not given)
**A:** > 100 µM (inactive)

**Q:** Another compound to check: `CC(=O)Nc1ccc(C(=O)N2N=C(C)/C(=C/c3cccc([N+](=O)[O-])c3)C2=O)cc1`
**A:** > 100 µM (inactive)

**Q:** Another compound to check: `CN(C)CCNC(=O)c1cc([N+](=O)[O-])cc2ccc(-c3ccccc3)nc12`
**A:** 5.22 µM (inactive)

**Q:** Another compound to check: COC(=O)C(=O)C(C(=O)C(N)=O)c1nc2ccc(C(=O)c3ccccc3)cc2nc1O (stereo not given)
**A:** > 100 µM (inactive)

**Q:** Another compound to check: CCCCCCCCCCCCCOCCOCCOCCCCC(O)CCCCCCCCCC1=C[C@H](C)OC1=O (stereo not given in full)
**A:** 16.4 µM (inactive)

**Q:** Another compound to check: COC(=O)/C(=N/NC(N)=O)C(C(=O)OC)C(=O)C(=O)Nc1ccc(Cl)cc1 (stereo not given)
**A:** > 100 µM (inactive)

**Q:** Another compound to check: O=C(CC1(O)C(=O)Nc2ccccc21)c1ccc(O)cc1O (stereo not given)
**A:** > 100 µM (inactive)

**Q:** Another compound to check: `CC(=O)/N=C1\N/C(=C\c2ccc(Cl)cc2)C(=O)N1/C=C1\C(=O)Oc2ccccc2C1=O`
**A:** > 100 µM (inactive)

* * *

- System: HCT-15
- procedure_details: NCI tumour cell line growth inhibition, 48 h
Strictly below 20 µM in GI50: MET. Otherwise: NOT MET.

Sample answers from the record:
**Q:** Determine if `Clc1ccc(Cc2nc3cc(CCN4CCN(c5ccccc5)CC4)ccc3[nH]2)cc1` shows GI50 strictly lower than 20 µM.
**A:** MET

**Q:** Another molecule to check: `CC1=C(c2ccccc2)CON(c2ccccc2)C1`
**A:** NOT MET

Others:
**Q:** Determine if `CCCc1cn2c(/C=N/NC(=N)N)c(-c3ccc([N+](=O)[O-])cc3)nc2s1` shows GI50 strictly lower than 20 µM.
**A:** MET

**Q:** Another molecule to check: `N#C/C(=C\c1ccncc1)c1csc2ccccc12`
**A:** NOT MET

**Q:** Another molecule to check: CC(=O)C(CN1CCOCC1)C(c1ccccc1)c1c(O)c2ccccc2oc1=O (stereo unspecified)
**A:** NOT MET

**Q:** Another molecule to check: `O=[N+]([O-])c1ccc2[nH]nc(OCc3ccccc3Cl)c2c1`
**A:** NOT MET

* * *

- System: OVCAR-4
- procedure_details: NCI tumour cell line growth inhibition, 48 h
Active and inactive are the calls of the source. Rule as the data show it: active = GI50 up to about 1.1 µM and inactive = higher.
quantity_measured: GI50

Below are worked cases with known answers.
**Q:** So what does the record say about GI50 for `O=c1ccc2nc3ccc(O)cc3oc-2c1` ?
**A:** > 68.1 µM (inactive)

**Q:** Another compound to check: CCOC(OC1=CCCC1)C(C)[Se]c1ccccc1 (stereo unspecified)
**A:** 44.2 µM (inactive)

**Q:** Another compound to check: `CCOC(=O)C1=C(Nc2ccccc2)SCC1=O`
**A:** 63.2 µM (inactive)

**Q:** Another compound to check: CC(=O)NC1=C(C)C(=O)c2c(nc3n2CCC3O)C1=N (stereo unspecified)
**A:** 4.09 µM (inactive)

**Q:** Another compound to check: O=C1CC2Sc3ccccc3N=C2N1c1ccc(Cl)cc1Cl (stereo unspecified)
**A:** > 100 µM (inactive)

Others:
**Q:** So what does the record say about GI50 for COC1CC2C3/C(=N/Nc4ccc([N+](=O)[O-])cc4[N+](=O)[O-])CCC2(C)C3C1 (stereo unspecified) ?
**A:** > 10 µM (inactive)

* * *

- Test system: UO-31
- procedure_details: NCI tumour cell line growth inhibition, 48 h
The source made the active and inactive calls. Rule as the data show it: active = GI50 up to about 1.1 µM and inactive = higher.
Entries and their GI50

Below are worked cases with known answers.
**Q:** So what does the record say about GI50 for c1ccc(C2=NOC3C4CCC(C4)C23)cc1 (configuration not stated) ?
**A:** > 100 µM (inactive)

**Q:** Another compound to check: COC(=O)CC1NC(=O)C1C(C)(OC)OC (configuration not stated)
**A:** > 100 µM (inactive)

**Q:** Another compound to check: `O=C1c2ccccc2C(=O)N1C/C=C/CO`
**A:** > 100 µM (inactive)

Others:
**Q:** So what does the record say about GI50 for O=C(Nc1cccc(Cl)c1)C(=O)C(C(=O)c1ccc2ccccc2c1)C1OC(=O)c2ccccc21 (configuration not stated) ?
**A:** 14.1 µM (inactive)

**Q:** Another compound to check: `CC(C)CNC(=O)Cn1c(-c2ccccc2)cc2ccccc21`
**A:** > 100 µM (inactive)

**Q:** Another compound to check: `COc1ccc(/C(Cl)=C(\c2ccc(OCCN(C)C)cc2)c2ccc(OC(=O)C(C)(C)C)cc2)cc1`
**A:** 6.95 µM (inactive)

**Q:** Another compound to check: CC(C)(C)OC(=O)N1CC(C)(C)N2C(=O)C3(CCCO3)C12 (configuration not stated)
**A:** > 100 µM (inactive)

* * *

- System: RXF 393
- procedure_details: NCI tumour cell line growth inhibition, 48 h
Activity calls are given as the source filed them. Cut-off read from the data, not from the text of the source: active = GI50 up to about 1.1 µM and inactive = higher.
Choose the fitting class; nothing outside active, inactive is accepted.

Sample answers from the record:
**Q:** Name the outcome recorded for COc1cc(C2c3cc4c(cc3OC(NNC(N)=O)C2C)OCO4)cc(OC)c1O (centres undefined) in the assay.
**A:** active

**Q:** Another molecule to check: `CN(C)CCC(=O)[C@@]1(O)CC[C@H]2[C@@H]3CC=C4C[C@@H](O)CC[C@]4(C)[C@H]3CC[C@@]21C`
**A:** inactive

**Q:** Another molecule to check: `O=c1c2ccccc2n2c(-c3ccccc3O)nnc2n1-c1ccccc1`
**A:** inactive

// switching to the query molecule
**Q:** Name the outcome recorded for C=C(C=O)CCCC(C)[C@@H]1CCC23CC12CCC1[C@@]2(C)CCC(OC(C)=O)C(C)(C)C2CC(OC2OC(COC(C)=O)C(O)C(O)C2O)[C@]13C (some centres undefined) in the assay.
**A:** inactive

* * *

- System: NCI/ADR-RES
- procedure_details: NCI tumour cell line growth inhibition, 48 h
Activity calls are given as the source filed them. No stated cut-off is given here; in the data, active = GI50 up to about 1.1 µM and inactive = higher.
Choose the fitting class; nothing outside true = active, false = inactive is accepted.

**Q:** Name the outcome recorded for `O=C(/C=C/c1ccc2c(c1)OCO2)CC(=O)C(=O)c1c[nH]c2ccccc12` in the assay.
**A:** false

**Q:** Another compound to check: `CN(C)CCC(=O)[C@@]1(O)CC[C@H]2[C@@H]3CC=C4C[C@@H](O)CC[C@]4(C)[C@H]3CC[C@@]21C`
**A:** false

**Q:** Another compound to check: `CCN(CC)CCCNc1nc2ccccc2[n+]([O-])n1`
**A:** false

**Q:** Another compound to check: `COC(=O)c1cc(C#Cc2cc(OC)ccc2OC)ccc1OC`
**A:** false

**Q:** Another compound to check: `Clc1ccc(-c2cn3c(nc4ccccc43)c(/C=C/c3ccco3)n2)cc1`
**A:** false

**Q:** Another compound to check: `CC(C)CNC(=O)Cn1c(-c2ccccc2)cc2ccccc21`
**A:** false

Others:
**Q:** Name the outcome recorded for `CCOC(=O)c1cn2c(n1)sc1cc(OC)ccc12` in the assay.
**A:** false

Where do these numbers come from? They come from ChEMBL document CHEMBL1201862.
